target.of.assay: C-terminal site of human recombinant ACE (Homo sapiens, UniProt P12821)
Sequence (P12821 30-1306): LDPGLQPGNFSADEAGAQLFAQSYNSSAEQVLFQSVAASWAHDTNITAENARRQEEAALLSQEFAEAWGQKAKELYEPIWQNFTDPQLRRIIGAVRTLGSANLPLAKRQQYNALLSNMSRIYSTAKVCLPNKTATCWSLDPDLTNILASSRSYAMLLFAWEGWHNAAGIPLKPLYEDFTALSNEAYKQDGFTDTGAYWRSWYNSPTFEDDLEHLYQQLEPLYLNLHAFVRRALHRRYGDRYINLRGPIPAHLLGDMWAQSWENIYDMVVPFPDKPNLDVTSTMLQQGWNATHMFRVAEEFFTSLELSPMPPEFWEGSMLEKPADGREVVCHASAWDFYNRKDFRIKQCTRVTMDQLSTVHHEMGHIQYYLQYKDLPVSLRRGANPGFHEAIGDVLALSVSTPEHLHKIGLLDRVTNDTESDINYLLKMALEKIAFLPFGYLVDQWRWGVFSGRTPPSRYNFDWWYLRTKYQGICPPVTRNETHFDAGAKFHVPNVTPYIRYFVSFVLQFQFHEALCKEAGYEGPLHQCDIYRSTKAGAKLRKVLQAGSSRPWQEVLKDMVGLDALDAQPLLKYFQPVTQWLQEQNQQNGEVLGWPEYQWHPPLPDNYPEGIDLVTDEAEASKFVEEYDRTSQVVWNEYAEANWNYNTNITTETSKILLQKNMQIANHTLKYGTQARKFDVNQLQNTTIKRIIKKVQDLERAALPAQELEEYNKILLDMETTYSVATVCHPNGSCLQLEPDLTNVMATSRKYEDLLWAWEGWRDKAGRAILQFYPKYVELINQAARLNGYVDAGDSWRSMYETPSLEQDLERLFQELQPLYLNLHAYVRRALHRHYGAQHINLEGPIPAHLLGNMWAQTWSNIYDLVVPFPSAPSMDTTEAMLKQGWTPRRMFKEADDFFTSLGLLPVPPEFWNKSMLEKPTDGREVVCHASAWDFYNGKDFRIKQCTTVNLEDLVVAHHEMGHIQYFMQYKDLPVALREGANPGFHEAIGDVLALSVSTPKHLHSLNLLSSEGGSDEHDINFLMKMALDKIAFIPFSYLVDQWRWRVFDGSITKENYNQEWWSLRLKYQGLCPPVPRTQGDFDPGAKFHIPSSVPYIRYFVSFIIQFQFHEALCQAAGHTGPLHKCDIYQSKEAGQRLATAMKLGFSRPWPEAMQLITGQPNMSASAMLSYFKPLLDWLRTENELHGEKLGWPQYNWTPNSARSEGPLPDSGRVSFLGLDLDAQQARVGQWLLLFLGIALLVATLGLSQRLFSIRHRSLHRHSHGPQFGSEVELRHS
test.description: Inhibition constants with respect to the C-terminal site of ACE (quenched-fluorescence substrate)
experimental.parameters: first HPLC fraction; substrate Mca-Ala-Ser-Asp-Lys-DpaOH; 25° C., pH 6.8, 50 mM HEPES, 10 mM CaCl2, 200 mM NaCl
Catalogue of pKi readings, one per entry.
Reminder that pKi is minus the log10 of a molar concentration.

CC(NC(=O)OCc1ccccc1)P(=O)(O)C1CCCC1C(=O)NC(CCCc1c[nH]c2ccccc12)C(=O)O (stereo not drawn) [Pseudopeptide E] ... 7.22
CC(NC(=O)CCP(=O)(O)C(Cc1ccccc1)NC(=O)OCc1ccccc1)C(=O)O (stereo not drawn) [Pseudopeptide A, reference compound] ... 9.10

Query compound follows.
Entry O=C(NC(CCc1ccccc1)P(=O)(O)C1CCCC1C(=O)NC(CCCc1c[nH]c2ccccc12)C(=O)O)OCc1ccccc1 (stereo not drawn) [Pseudopeptide F] , pKi reported as 7.22

----------
The compounds listed here are annotated with their Ki.
target.of.assay: C-terminal site of human recombinant ACE (Homo sapiens)
test.description: Inhibition constants with respect to the C-terminal site of ACE (quenched-fluorescence substrate)
experimental.parameters: first HPLC fraction; substrate Mca-Ala-Ser-Asp-Lys-DpaOH; 25° C., pH 6.8, 50 mM HEPES, 10 mM CaCl2, 200 mM NaCl
Express it in nM; write the number only.

O=C(NC(Cc1ccccc1)P(=O)(O)C1CCCC1C(=O)N1CCCC1C(=O)O)OCc1ccccc1 (stereo not shown) [Pseudopeptide C] ... 4
O=C(NC(Cc1ccccc1)P(=O)(O)C1CCCC1C(=O)NC(Cc1c[nH]c2ccccc12)C(=O)O)OCc1ccccc1 (stereo not shown) [Pseudopeptide G] ... 3
CC(NC(=O)C1CCCC1P(=O)(O)C(Cc1ccccc1)NC(=O)OCc1ccccc1)C(=O)O (stereo not shown) [Pseudopeptide B] ... 20

Turning now to a further compound:
Briefly, Ki measured for N=C(N)NCCCC(NC(=O)C1CCCC1P(=O)(O)C(Cc1ccccc1)NC(=O)OCc1ccccc1)C(=O)O (stereo not shown) [Pseudopeptide D] : 9

----------
target.of.assay: N-terminal site of human recombinant ACE (Homo sapiens)
Sequence (P12821 30-1306): as above
test.description: Inhibition constants with respect to the N-terminal site of ACE (quenched-fluorescence substrate)
experimental.parameters: first HPLC fraction; substrate Mca-Ala-Ser-Asp-Lys-DpaOH; 25° C., pH 6.8, 50 mM HEPES, 10 mM CaCl2, 200 mM NaCl
# Ki annotations
Write down the numeric answer in nM and omit the unit.

Below, each entry is followed by its recorded Ki result.
CC(NC(=O)CCP(=O)(O)C(Cc1ccccc1)NC(=O)OCc1ccccc1)C(=O)O (stereo not shown) [Pseudopeptide A, reference compound] ... 0.8
O=C(NC(CCc1ccccc1)P(=O)(O)C1CCCC1C(=O)NC(CCCc1c[nH]c2ccccc12)C(=O)O)OCc1ccccc1 (stereo not shown) [Pseudopeptide F] ... 8000
CC(NC(=O)C1CCCC1P(=O)(O)C(Cc1ccccc1)NC(=O)OCc1ccccc1)C(=O)O (stereo not shown) [Pseudopeptide B] ... 450

API: the following record is the query input.
# compound O=C(NC(Cc1ccccc1)P(=O)(O)C1CCCC1C(=O)N1CCCC1C(=O)O)OCc1ccccc1 (stereo not shown) [Pseudopeptide C] ; its Ki = 60
